- METHOD: folding stability dG unfold from trypsin proteolysis; higher = more stable
READOUT: folding stability dG unfold (kcal/mol)
The answer is to be given in kcal/mol; state only the numeric part.

BIOPOLYMER SEQUENCE	RECORDED VALUE
SAGGMKIIEIEDRGPGKFAGPETVLEALRKALPGIPIEVLDYDPEKHVIRIRVPEEAVPRIVEAFKSSAGGS [r8_235_TrMRF]	3.68
SMPVTITRDFDIPLATLSVEEVKAAIEEALKAEGLNVVEPKLDEKLVKELEEAPPSSTLPVKVTVLVEPASA [r9_1163_JUSTAS]	0.35
SIEEIADTLQKLGLNVNIDDIELEPNPDGRFRIQVQVSGEPIRQVEVPPPPPPPPEEEVRDPDGKEHKVRSA [r9_442_TrROS]	-0.188
SAGGGAPNKPVGKETFTVKIGDKWVKVEVTHYATSGTAEVKVTGPNGGPLGTFTVKIDPEKGGVYFGSAGGS [r16_798_TrMRF]	0.728

Consider the sequence shown here: SAGGAMPKTITVTDPTSSREEAEALLASPERLEAIAEEIKPEFPGVDLTVTVSSDPATGTLTITIVSSAGGS [r16_320_JUSTAS] What is its recorded folding stability dG unfold? 0.289

Field request: folding stability dG unfold | item: SAGNIRIDVHVPPDGYYMIKIRFPGNGREANIMLPPNDPDKFKELAEEIAENLFEEGFPIEVDIEPIPPSAG [r5_815_TrROS] 1.56

Request the reported folding stability dG unfold associated with SAGGSAGGSAPGSMLRIPVSEEELKKKGLTPEELAKEIRERYPELPESVVVEFPPDGNIVIVESAGGSAGGS [r12_50_JUSTAS] 0.906

Field request: folding stability dG unfold | item: SAGDKKTIELWFMFKTPEEARHEADSIARRLAEEGLTIKVELKDIEPMPDPDGEKYYMFEFKVTIQLPNSAG [r5_158_TrROS] 2.55

State the recorded folding stability dG unfold for this entry: SAGIKPGEKIEKVEIVKVEVKKNKDGSKTVTVTIKLKDGKTITIKPGETIEIKIENKKEGEKITLKVKSAGG [r19_199_TrROS_Hall] 1.45

Look at this sequence and give its reported folding stability dG unfold. SAGKSIKIPYIIRFPSPNGEPHLMRIKEVTINPKPGMVKIKFQMPGKKQTHTVPPNNIEILPDPEEILKSAG [r5_15_TrROS] 0.116

# input sequence: SAGGSAGGSAGSVIVTSTTSTLPNGTVVTNETVSDPSNPGVTTKKTSTTYPDGSVTTTESSAGGSAGGSAGG [r11_483_JUSTAS] ; wanted: its folding stability dG unfold 0.213

Endpoint output: folding stability dG unfold of SMDIKVTKLPDGSYRITASVPPDTKPITIPVPKTGKPVVITTEPGKLTVTTDDEEVVKEVAEAIKKGELLSA [r9_515_JUSTAS] . Value? 0.951

What does the record list as folding stability dG unfold for SAMKLPKDVEIKEIKFDPEKTVTIKIKVKKYDFFIYDPETGKVIVIKPGEEKEITLPANIPLLIFAIKPSAG [r14_385_TrMRF] ? 2.16

I would be grateful if you could share the reported folding stability dG unfold for SAGGMTITFTLEFDLEDDRRITVTATIDPTGDDVLITVRVELTLPNGEKLEFTATIVLPPGAHPDELISAGG [r13_3_TrMRF] . 4.15

Value source: the supplement of paper PMC12764529
